Would you mind telling me the reported Max Inhibition (%), NFκB-luciferase, 600 pM hIL-36β of each entry?
- systemUnderTest: T1, Macaca fascicularis IL-36R on cells (Macaca fascicularis, UniProt A0A2K5WSK9 20-558)
- T1 sequence: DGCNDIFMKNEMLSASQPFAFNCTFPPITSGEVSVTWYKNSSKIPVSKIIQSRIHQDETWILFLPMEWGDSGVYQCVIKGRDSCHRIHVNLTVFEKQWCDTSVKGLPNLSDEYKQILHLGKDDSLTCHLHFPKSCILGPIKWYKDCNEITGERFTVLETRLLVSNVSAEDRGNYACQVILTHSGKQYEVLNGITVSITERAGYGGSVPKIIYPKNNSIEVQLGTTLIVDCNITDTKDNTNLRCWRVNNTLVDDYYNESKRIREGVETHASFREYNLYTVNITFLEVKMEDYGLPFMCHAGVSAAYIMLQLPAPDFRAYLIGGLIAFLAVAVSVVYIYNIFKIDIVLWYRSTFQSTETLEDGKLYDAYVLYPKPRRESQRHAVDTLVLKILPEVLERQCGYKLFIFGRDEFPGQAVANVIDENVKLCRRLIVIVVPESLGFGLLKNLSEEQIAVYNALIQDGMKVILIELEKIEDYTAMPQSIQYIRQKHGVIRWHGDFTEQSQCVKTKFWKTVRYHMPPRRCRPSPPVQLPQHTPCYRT
- assayComment: cell-based or functional assay
The reply should be a number in %, with the unit left off.

For the binder H4H14757P (antibody, human IgG4 S228P, kappa, V domains shown) VH: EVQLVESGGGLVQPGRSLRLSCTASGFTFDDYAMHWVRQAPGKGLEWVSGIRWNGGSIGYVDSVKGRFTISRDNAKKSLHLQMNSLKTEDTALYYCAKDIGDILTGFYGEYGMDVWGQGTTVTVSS VL: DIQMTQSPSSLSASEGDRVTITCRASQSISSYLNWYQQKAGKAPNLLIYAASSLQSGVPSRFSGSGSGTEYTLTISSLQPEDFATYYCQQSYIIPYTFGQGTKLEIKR , give its reported Max Inhibition (%), NFκB-luciferase, 600 pM hIL-36β. 36

Give reported Max Inhibition (%), NFκB-luciferase, 600 pM hIL-36β value for H4H14700P2 (antibody, human IgG4 S228P, kappa, V domains shown) VH: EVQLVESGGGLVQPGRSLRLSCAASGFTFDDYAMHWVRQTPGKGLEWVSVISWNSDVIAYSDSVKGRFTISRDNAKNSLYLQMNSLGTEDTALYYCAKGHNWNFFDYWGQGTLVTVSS VL: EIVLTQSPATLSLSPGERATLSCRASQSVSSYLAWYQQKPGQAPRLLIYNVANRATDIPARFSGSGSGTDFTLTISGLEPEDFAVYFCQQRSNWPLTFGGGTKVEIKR 99

Complete the entry with Max Inhibition (%), NFκB-luciferase, 600 pM hIL-36β for H4H14708P2 (antibody, human IgG4 S228P, kappa, V domains shown) VH: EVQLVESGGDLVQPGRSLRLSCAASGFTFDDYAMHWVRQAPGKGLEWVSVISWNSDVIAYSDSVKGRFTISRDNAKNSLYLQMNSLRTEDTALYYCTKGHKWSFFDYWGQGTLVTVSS VL: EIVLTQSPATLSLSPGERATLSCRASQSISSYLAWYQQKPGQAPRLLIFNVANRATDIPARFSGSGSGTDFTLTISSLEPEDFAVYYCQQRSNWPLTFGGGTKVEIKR 100

FYI, the data here is from patent US20200017592A1.
